Test system: Fibroblast
Assay: Multiplex assay against human fibroblast
Format: toxicity, cell-based
Conditions: 48 h, 10 µM, compound concentration 10 uM, replicate 1
# Population Pyknosed Nuclei (%) annotations
reported_endpoint: Population Pyknosed Nuclei (%)

{"compound": "CCn1c(-c2nonc2N)nc2cnc(Oc3cccc(NC(=O)c4ccc(OCCN5CCOCC5)cc4)c3)cc21 [GSK-269962A]", "reported_endpoint": "Population Pyknosed Nuclei (%)", "measured_value": 13}
{"compound": "Cl.Cl.Nc1ncnc2c1c(-c1cccc(OCc3ccccc3)c1)cn2[C@H]1C[C@@H](CN2CCC2)C1", "reported_endpoint": "Population Pyknosed Nuclei (%)", "measured_value": 40}
{"compound": "CCc1cc2c(cc1CC)CC(NC[C@H](O)c1ccc(O)c3[nH]c(=O)ccc13)C2 [INDACATEROL]", "reported_endpoint": "Population Pyknosed Nuclei (%)", "measured_value": 14}
{"compound": "CNc1oc(-c2cccc3ccccc23)nc1C#N", "reported_endpoint": "Population Pyknosed Nuclei (%)", "measured_value": 30}
{"compound": "CNC(=O)c1nn(C)c2c1C(C)(C)Cc1cnc(Nc3ccc(N4CCN(C)CC4)cc3)nc1-2 [MILCICLIB]", "reported_endpoint": "Population Pyknosed Nuclei (%)", "measured_value": 11}
{"compound": "C1=N/C2=N/c3ccc(OCCN4CCCC4)c(c3)COC/C=C\\COCc3cccc(c3)C(=C1)N2", "reported_endpoint": "Population Pyknosed Nuclei (%)", "measured_value": 24}
{"compound": "COc1ccc(NS(=O)(=O)c2sc3ccc(Cl)cc3c2C)cc1N1CCNCC1.Cl", "reported_endpoint": "Population Pyknosed Nuclei (%)", "measured_value": 21}
{"compound": "COc1cc(N2CCC(N(C)C)CC2)ccc1Nc1ncc(Cl)c(Nc2ccccc2P(C)(C)=O)n1", "reported_endpoint": "Population Pyknosed Nuclei (%)", "measured_value": 10}
{"compound": "CC(C)N1CCC(C)(C)c2cc(C#Cc3ccc(C(=O)O)cc3)ccc21", "reported_endpoint": "Population Pyknosed Nuclei (%)", "measured_value": 2}
{"compound": "O=C(O)c1ccc2cc(-c3ccc(O)c(C45CC6CC(CC(C6)C4)C5)c3)ccc2c1 [O-DEMETHYLATED ADAPALENE]", "reported_endpoint": "Population Pyknosed Nuclei (%)", "measured_value": 7}
{"compound": "CC(C)Oc1ccc(C(=O)N[C@H](CNC(=O)CN(C)C)Cc2ccc(-c3cn4cccc([C@H](C)O)c4n3)cc2)cc1Cl [GSK-923295A]", "reported_endpoint": "Population Pyknosed Nuclei (%)", "measured_value": 13}
{"compound": "Nc1ccc(C(=O)Nc2cccc(-c3nc(N4CCOCC4)c4oc5ncccc5c4n3)c2)cn1", "reported_endpoint": "Population Pyknosed Nuclei (%)", "measured_value": 23}
{"compound": "Nc1nc2c(c(N3CCNCC3)n1)CCC1=C2[C@@H]2CCCC[C@@H]2O1", "reported_endpoint": "Population Pyknosed Nuclei (%)", "measured_value": 29}
{"compound": "CCC(=O)O[C@]1(C(=O)SCF)[C@H](C)C[C@H]2[C@@H]3C[C@H](F)C4=CC(=O)C=C[C@]4(C)[C@@]3(F)[C@@H](O)C[C@@]21C [FLUTICASONE PROPIONATE]", "reported_endpoint": "Population Pyknosed Nuclei (%)", "measured_value": 14}
